Exercise: for every item that follows, state its recorded MIC80.
Tested on: Streptococcus pneumoniae
Assay: Antibacterial activity against Streptococcus pneumoniae 943 by standard dilution assay
Format: functional
Expressed in µg/mL, but write only the number.

Output MIC80 of "CC[C@H]1OC(=O)[C@H](C)[C@@H](O[C@H]2C[C@@](C)(OC)[C@@H](OC(=O)NCCO[C@@H]3OC[C@@H](O)[C@H](O)[C@H]3O)[C@H](C)O2)[C@H](C)[C@@H](O[C@@H]2O[C@H](C)C[C@H](N(C)C)[C@H]2O)[C@](C)(O)C[C@@H](C)CN(C)[C@H](C)[C@H]2OC(=O)O[C@@]21C"
2

Assign MIC80 to the following record: "CC[C@H]1OC(=O)[C@H](C)[C@@H](O[C@H]2C[C@@](C)(OC)[C@@H](OC(=O)NCCO[C@@H]3O[C@H](CO)[C@@H](O)[C@H](O)[C@@H]3O)[C@H](C)O2)[C@H](C)[C@@H](O[C@@H]2O[C@H](C)C[C@H](N(C)C)[C@H]2O)[C@](C)(O)C[C@@H](C)CN(C)[C@H](C)[C@H]2OC(=O)O[C@@]21C"
4

Tell me measured MIC80 for "CC[C@H]1OC(=O)[C@H](C)[C@@H](O[C@H]2C[C@@](C)(OC)[C@@H](OC(=O)NCCO[C@@H]3O[C@@H](C)[C@H](O)[C@@H](O)[C@H]3O)[C@H](C)O2)[C@H](C)[C@@H](O[C@@H]2O[C@H](C)C[C@H](N(C)C)[C@H]2O)[C@](C)(O)C[C@@H](C)CN(C)[C@H](C)[C@H]2OC(=O)O[C@@]21C" please.
4

Output measured MIC80 for this item: "CC[C@H]1OC(=O)[C@H](C)[C@@H](O[C@H]2C[C@@](C)(OC)[C@@H](O)[C@H](C)O2)[C@H](C)[C@@H](O[C@@H]2O[C@H](C)C[C@H](N(C)C)[C@H]2O)[C@](C)(O)C[C@@H](C)CN(C)[C@H](C)[C@@H](O)[C@]1(C)O"
4
